- Test system: Staphylococcus aureus
- Test Protocol: Antibacterial activity against Staphylococcus aureus 15B196 by microbroth dilution method
- Type: functional
The label is YES for MIC below 300 µg/mL and NO for MIC equal to or exceeding 300 µg/mL.

Reference set, count: 5
| Smiles String | Group Label |
| --- | --- |
| CC[C@H]1OC(=O)[C@H](C)C(=O)[C@H](C)[C@@H](O[C@@H]2O[C@H](C)C[C@H](N(C)C)[C@H]2O)[C@](C)(OC)C[C@@H](C)C(=O)[C@H](C)[C@H]2N(CCCCN3CCN(c4cc5c(cc4F)c(=O)c(C(=O)O)cn5C4CC4)CC3)C(=O)O[C@]12C | YES |
| CC[C@H]1OC(=O)[C@H](C)C(=O)[C@H](C)[C@@H](O[C@@H]2O[C@H](C)C[C@H](N(C)C)[C@H]2O)[C@](C)(OC)C[C@@H](C)C(=O)[C@H](C)[C@H]2N(CCCCCCC#Cc3ccc4c(=O)c(C(=O)O)cn(C5CC5)c4c3)C(=O)O[C@]12C | YES |
| CC[C@H]1OC(=O)[C@H](C)C(=O)[C@H](C)[C@@H](O[C@@H]2O[C@H](C)C[C@H](N(C)C)[C@H]2O)[C@](C)(OC)C[C@@H](C)C(=O)[C@H](C)[C@H]2N(CCCCC#Cc3ccc4c(=O)c(C(=O)O)cn(C5CC5)c4c3)C(=O)O[C@]12C | YES |
| CC[C@H]1OC(=O)[C@H](C)C(=O)[C@H](C)[C@@H](O[C@@H]2O[C@H](C)C[C@H](N(C)C)[C@H]2O)[C@](C)(OC)C[C@@H](C)C(=O)[C@H](C)[C@H]2N(CCCN3CCN(c4cc5c(cc4F)c(=O)c(C(=O)O)cn5C4CC4)CC3)C(=O)O[C@]12C | YES |
| CC[C@H]1OC(=O)[C@H](C)C(=O)[C@H](C)[C@@H](O[C@@H]2O[C@H](C)C[C@H](N(C)C)[C@H]2O)[C@](C)(OC)C[C@@H](C)C(=O)[C@H](C)[C@H]2N(CCCCc3ccc4c(=O)c(C(N)=O)cn(C5CC5)c4c3)C(=O)O[C@]12C | NO |

QUERY: Lab note: MIC threshold 300 µg/mL. Does this compound come in strictly under it? `CC[C@H]1OC(=O)[C@H](C)C(=O)[C@H](C)[C@@H](O[C@@H]2O[C@H](C)C[C@H](N(C)C)[C@H]2O)[C@](C)(OC)C[C@@H](C)C(=O)[C@H](C)[C@H]2N(CCCCCC#Cc3ccc4c(c3)c(=O)c(C(N)=O)cn4C3CC3)C(=O)O[C@]12C`
RESULT: YES
